Below, each entry is listed alongside its reported Kd.
# Target system: T1, recombinant human TIGIT (human, UniProt Q495A1 22-141, limits assumed)
# T1 construct: recombinant human TIGIT used in Carterra SPR; also called hTIGIT
# T1 sequence (looked up): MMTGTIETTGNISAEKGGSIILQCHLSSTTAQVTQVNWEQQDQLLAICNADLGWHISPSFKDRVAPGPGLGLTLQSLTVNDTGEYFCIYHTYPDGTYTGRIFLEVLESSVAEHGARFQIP
# Assay overview: SPR Carterra, average
Reply with just the number (in nM).

Reference set (4 entries):
[
  {
    "Binder": "TIGIT-SC116 (Fc fusion, VHH-Fc fusion in assay) VHH: EVQLVESGGGLVQPGGSLRLSCAASGFTFSPSWMGWFRQAPGKEREWVASVLRGGYTWYADSVKGRFTISADNSKNTAYLQMNSLKPEDTAVYYCDAADYWGQGTLVTVSS",
    "Units text": "nM",
    "Kd": 4.08
  },
  {
    "Binder": "TIGIT-SC174 (Fc fusion, VHH-Fc fusion in assay) VHH: EVQLVESGGGLVQPGGSLRLSCAASGFLFDSYAMGWFRQAPGKEREFVAAISWSGGSTYYADSVKGRFTISADNSKNTAYLQMNSLKPEDTAVYYCTTDALRFLEWPWWGQGTLVTVSS",
    "Units text": "nM",
    "Kd": 124
  },
  {
    "Binder": "TIGIT-SC198 (Fc fusion, VHH-Fc fusion in assay) VHH: EVQLVESGGGLVQPGGSLRLSCAASGFTFSPSWMGWFRQAPGKEREYVASVLRGGYTWYADSVKGRFTISADNSKNTAYLQMNSLKPEDTAVYYCASEGDPDYWGQGTLVTVSS",
    "Units text": "nM",
    "Kd": 27.6
  },
  {
    "Binder": "TIGIT-SC42 (Fc fusion, VHH-Fc fusion in assay) VHH: EVQLVESGGGLVQPGGSLRLSCAASGNTFSGGFMGWFRQAPGKEREWVATVLRGGYTWYADSVKGRFTISADNSKNTAYLQMNSLKPEDTAVYYCASGGFLASWGQGTLVTVSS",
    "Units text": "nM",
    "Kd": 1400
  }
]

Sure, the documented Kd for TIGIT-SC25 (Fc fusion, VHH-Fc fusion in assay) VHH: EVQLVESGGGLVQPGGSLRLSCAASGNTFSGGFMGWFRQAPGKEREWVASVLRGGYTWYADSVKGRFTISADNSKNTAYLQMNSLKPEDTAVYYCTTVGYGDYWGQGTLVTVSS is 22.5

Sure, the documented Kd for TIGIT-SC83 (Fc fusion, VHH-Fc fusion in assay) VHH: EVQLVESGGGLVQPGGSLRLSCAASGRTFSDDAMGWFRQAPGKEREFVAAISRSGGNTYYADSVKGRFTISADNSKNTAYLQMNSLKPEDTAVYYCAKWFYYGSGLYTLDVWGQGTLVTVSS is 29.1

Sure, the documented Kd for TIGIT-SC8 (Fc fusion, VHH-Fc fusion in assay) VHH: EVQLVESGGGLVQPGGSLRLSCAASGFAFSSYAMGWFRQAPGKEREFVARITWNGGSAYYADSVKGRFTISADNSKNTAYLQMNSLKPEDTAVYYCAAGATGWFDPWGQGTLVTVSS is 14.6

Sure, the documented Kd for TIGIT-SC178 (Fc fusion, VHH-Fc fusion in assay) VHH: EVQLVESGGGLVQPGGSLRLSCAASGFTLSPSWMGWFRQAPGKEREWVASVLRGGYTWYADSVKGRFTISADNSKNTAYLQMNSLKPEDTAVYYCASEVASGETDYWGQGTLVTVSS is 296
